Exercise: state measured concentration at 2 h for each of the molecules provided.
# experimental.protocol: Plasma concentration in rats after subcutaneous administration (HPLC)
# setup.conditions: rat, plasma, sc, 5 mg/kg
Counter-ions that a name gives are not always drawn.
Number first, unit second: that is the form wanted.

Q: Need concentration at 2 h, item N=C(N)c1cccc(CC(NS(=O)(=O)c2ccc3ccccc3c2)C(=O)N2CCC(C(=O)O)CC2)c1 (racemic)
A: 977 ng/mL

Q: Need concentration at 2 h, item NCc1cccc(CC(NS(=O)(=O)c2ccc3ccccc3c2)C(=O)N2CCC(C(=O)O)CC2)c1 (racemic)
A: 534 ng/mL

Q: Need concentration at 2 h, item N=C(NO)c1cccc(CC(NS(=O)(=O)c2ccc3ccccc3c2)C(=O)N2Cc3ccccc3CC2C(=O)O)c1 (racemic) [Compound 190, hydroiodide]
A: 270 ng/mL

Q: Need concentration at 2 h, item N=C(N)c1cccc(CC(NS(=O)(=O)c2ccc3ccccc3c2)C(=O)N2CCCCC2C(=O)O)c1 (racemic)
A: 415 ng/mL

Q: Need concentration at 2 h, item N=C(N)c1cccc(C[C@H](NS(=O)(=O)c2ccc3ccccc3c2)C(=O)N2CCC[C@@H]2C(=O)O)c1 [Compound 123, hydrochloride]
A: 1600 ng/mL

Q: Need concentration at 2 h, item N=C(N)c1cccc(CC(NS(=O)(=O)c2ccc3ccccc3c2)C(=O)N2Cc3ccccc3CC2C(=O)O)c1 (racemic)
A: 145 ng/mL

---

# target.entity: glandular kallikrein (Sus scrofa, UniProt P00752)
# Sequence (P00752 8-246): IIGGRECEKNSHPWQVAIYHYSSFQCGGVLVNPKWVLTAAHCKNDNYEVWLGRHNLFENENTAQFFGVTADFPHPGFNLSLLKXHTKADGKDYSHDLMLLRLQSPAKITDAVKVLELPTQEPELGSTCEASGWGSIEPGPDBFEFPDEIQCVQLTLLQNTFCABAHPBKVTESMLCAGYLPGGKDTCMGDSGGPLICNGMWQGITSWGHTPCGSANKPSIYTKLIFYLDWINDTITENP
# experimental.protocol: Inhibition of glandular kallikrein (Ki)
# Format: biochemical
# setup.conditions: Table 26; read-out: Ki, Gland. Kallikrein
property: Ki (µM)
Dear colleague, please return just the value in µM, with no unit written.

Q: Need Ki, item COC(=O)[C@H](Cc1cccc(C(=N)N)c1)NC(=O)CNS(=O)(=O)c1ccc(C)cc1 [TAPAM, reference compound]
A: 890

Q: Need Ki, item N=C(N)c1cccc(CC(NS(=O)(=O)c2ccc3ccccc3c2)C(=O)N2Cc3ccccc3CC2C(=O)O)c1 (racemic) [Compound 134]
A: 390

---

# experimental.protocol: Plasma concentration in rats after oral administration (HPLC)
# setup.conditions: rat, plasma, po, 100 mg/kg
property: concentration at 0.75 h (µg/mL)
Dear colleague, please return just the value in µg/mL, with no unit written.

Q: Need concentration at 0.75 h, item N=C(N)c1cccc(CC(NS(=O)(=O)c2ccc3ccccc3c2)C(=O)N2CCC(C(=O)O)CC2)c1 (racemic) [Compound 85]
A: 0.345

Q: Need concentration at 0.75 h, item NCc1cccc(CC(NS(=O)(=O)c2ccc3ccccc3c2)C(=O)N2CCC(C(=O)O)CC2)c1 (racemic) [Compound 186]
A: 0.769

Q: Need concentration at 0.75 h, item N=C(NO)c1cccc(CC(NS(=O)(=O)c2ccc3ccccc3c2)C(=O)N2Cc3ccccc3CC2C(=O)O)c1 (racemic) [Compound 190, hydroiodide]
A: 0.796

Q: Need concentration at 0.75 h, item N=C(N)c1cccc(CC(NS(=O)(=O)c2ccc3ccccc3c2)C(=O)N2Cc3ccccc3CC2C(=O)O)c1 (racemic) [Compound 134]
A: 0.297

---

# experimental.protocol: Plasma concentration in rats after oral administration (HPLC)
# setup.conditions: rat, plasma, po, 100 mg/kg
Structures can show the parent of a compound that is named as a salt.
Label scheme for concentration at 0.5 h: lower than 300 ng/mL is n, 300 ng/mL and above is y.

Q: Given the entry N=C(NO)c1cccc(CC(NS(=O)(=O)c2ccc3ccccc3c2)C(=O)N2Cc3ccccc3CC2C(=O)O)c1 (racemic) [Compound 190, hydroiodide] , answer whether its concentration at 0.5 h meets or surpasses 300 ng/mL.
A: y

Q: Given the entry NCc1cccc(CC(NS(=O)(=O)c2ccc3ccccc3c2)C(=O)N2CCC(C(=O)O)CC2)c1 (racemic) , answer whether its concentration at 0.5 h meets or surpasses 300 ng/mL.
A: y

Q: Given the entry N=C(N)c1cccc(CC(NS(=O)(=O)c2ccc3ccccc3c2)C(=O)N2Cc3ccccc3CC2C(=O)O)c1 (racemic) , answer whether its concentration at 0.5 h meets or surpasses 300 ng/mL.
A: n

Q: Given the entry N=C(N)c1cccc(CC(NS(=O)(=O)c2ccc3ccccc3c2)C(=O)N2CCCCC2C(=O)O)c1 (racemic) , answer whether its concentration at 0.5 h meets or surpasses 300 ng/mL.
A: n

Q: Given the entry N=C(N)c1cccc(C[C@H](NS(=O)(=O)c2ccc3ccccc3c2)C(=O)N2CCC[C@@H]2C(=O)O)c1 [Compound 123, hydrochloride] , answer whether its concentration at 0.5 h meets or surpasses 300 ng/mL.
A: n

Q: Given the entry N=C(N)c1cccc(CC(NS(=O)(=O)c2ccc3ccccc3c2)C(=O)N2CCC(C(=O)O)CC2)c1 (racemic) , answer whether its concentration at 0.5 h meets or surpasses 300 ng/mL.
A: y

---

Exercise: state measured concentration at 6 h for each of the compounds provided.
# experimental.protocol: Plasma concentration in rats after oral administration (HPLC)
# setup.conditions: rat, plasma, po, 100 mg/kg
Dear colleague, please return just the value in ng/mL, with no unit written.

Q: Need concentration at 6 h, item NCc1cccc(CC(NS(=O)(=O)c2ccc3ccccc3c2)C(=O)N2CCC(C(=O)O)CC2)c1 (racemic)
A: 326

Q: Need concentration at 6 h, item N=C(N)c1cccc(CC(NS(=O)(=O)c2ccc3ccccc3c2)C(=O)N2Cc3ccccc3CC2C(=O)O)c1 (racemic)
A: 86

---

# experimental.protocol: in vivo
# setup.conditions: mouse, iv
Counter-ions that a name gives are not always drawn.
Could you mark each record rule met if its LD50 at 168 h falls strictly under 100 mg/kg, and rule not met if it equals or exceeds it?

Q: Here's an entry: N=C(N)c1cccc(C[C@H](NS(=O)(=O)c2ccc3ccccc3c2)C(=O)N2CCC[C@@H]2C(=O)O)c1 [Compound 123, hydrochloride] . Is its LD50 at 168 h below 100 mg/kg?
A: rule not met

Q: Here's an entry: N=C(NO)c1cccc(CC(NS(=O)(=O)c2ccc3ccccc3c2)C(=O)N2Cc3ccccc3CC2C(=O)O)c1 (racemic) [Compound 190, hydroiodide] . Is its LD50 at 168 h below 100 mg/kg?
A: rule not met

Q: Here's an entry: COC(=O)[C@H]1CCCN1C(=O)[C@H](Cc1cccc(C(=N)N)c1)NS(=O)(=O)c1ccc2ccccc2c1 [Compound 124, hydrochloride] . Is its LD50 at 168 h below 100 mg/kg?
A: rule met

Q: Here's an entry: N=C(N)c1cccc(CC(NS(=O)(=O)c2ccc3ccccc3c2)C(=O)N2CCCCC2C(=O)O)c1 (racemic) . Is its LD50 at 168 h below 100 mg/kg?
A: rule not met

Q: Here's an entry: N=C(N)c1cccc(CC(NS(=O)(=O)c2ccc3ccccc3c2)C(=O)N2Cc3ccccc3CC2C(=O)O)c1 (racemic) . Is its LD50 at 168 h below 100 mg/kg?
A: rule met

Q: Here's an entry: N=C(N)c1cccc(CC(NS(=O)(=O)c2ccc3ccccc3c2)C(=O)N2CCC(C(=O)O)CC2)c1 (racemic) . Is its LD50 at 168 h below 100 mg/kg?
A: rule met

---

Exercise: state measured pKi for each of the compounds provided.
# target.entity: factor XIIa (Homo sapiens)
# Construct: glandular kallikrein, factor XIIa and plasma kallikrein
# experimental.protocol: Inhibition of factor XIIa (Ki)
# setup.conditions: Table 26
pKi: −log10 of the molar value. Where a name gives a salt, the structure may show the parent alone.

Q: For factor XIIa (Homo sapiens), provide pKi of CN1CCN(C(=O)C(Cc2cccc(C(=N)N)c2)NS(=O)(=O)c2ccc3ccccc3c2)CC1 (racemic) [Compound 35] please.
A: < 3.00

Q: For factor XIIa (Homo sapiens), provide pKi of N=C(N)c1cccc(C[C@H](NS(=O)(=O)c2ccc3ccccc3c2)C(=O)N2CCC[C@@H]2C(=O)O)c1 [Compound 123, hydrochloride] please.
A: < 3.00

Q: For factor XIIa (Homo sapiens), provide pKi of CC1CCN(C(=O)C(Cc2cccc(C(=N)N)c2)NS(=O)(=O)c2ccc3ccccc3c2)CC1 (racemic) [Compound 34] please.
A: < 3.00

Q: For factor XIIa (Homo sapiens), provide pKi of CC1CCN(C(=O)C(Cc2cccc(CN)c2)NS(=O)(=O)c2ccc3ccccc3c2)CC1 (racemic) [Compound 182] please.
A: > 3.00

Q: For factor XIIa (Homo sapiens), provide pKi of N=C(N)c1cccc(CC(NS(=O)(=O)c2ccc3ccccc3c2)C(=O)N2Cc3ccccc3CC2C(=O)O)c1 (racemic) [Compound 134] please.
A: < 3.00

---

Exercise: state measured pKi for each of the compounds provided.
# target.entity: factor XIIa (Homo sapiens, UniProt P00748)
# Construct: glandular kallikrein, factor XIIa and plasma kallikrein
# Sequence (P00748 373-615 limits assumed): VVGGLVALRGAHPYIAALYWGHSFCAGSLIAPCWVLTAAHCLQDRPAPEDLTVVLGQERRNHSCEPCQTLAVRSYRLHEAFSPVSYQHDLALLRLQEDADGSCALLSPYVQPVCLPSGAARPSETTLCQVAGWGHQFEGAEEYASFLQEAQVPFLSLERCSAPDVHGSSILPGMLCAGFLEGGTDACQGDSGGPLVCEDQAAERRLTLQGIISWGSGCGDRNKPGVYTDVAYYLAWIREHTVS
# experimental.protocol: Inhibition of factor XIIa (Ki)
# setup.conditions: Table 26
pKi: −log10 of the molar value. Counter-ions that a name gives are not always drawn.

Q: For factor XIIa (Homo sapiens, UniProt P00748), provide pKi of N=C(N)Nc1cccc(CC(NS(=O)(=O)c2ccc3ccccc3c2)C(=O)N2CCCCC2)c1 (racemic) [Compound 207, hydrochloride] please.
A: < 3.00

Q: For factor XIIa (Homo sapiens, UniProt P00748), provide pKi of N=C(N)c1cccc(CC(NS(=O)(=O)c2ccc3ccccc3c2)C(=O)N2CCCCC2C(=O)O)c1 (racemic) please.
A: < 3.00

Q: For factor XIIa (Homo sapiens, UniProt P00748), provide pKi of CC1CCN(C(=O)C(Cc2cccc(C(=N)N)c2)NS(=O)(=O)c2ccc3ccccc3c2)C(C(=O)O)C1 (racemic) please.
A: < 3.00

Data provenance is patent US5518735A.
